test system: HCT-15 colon; assay: NCI tumour cell line growth inhibition, 48 h
TGI values, listed per item
Reported metric: TGI

INSERT INTO measurements (molecule, val) VALUES
  ('C/C(=N\NC(=O)CC(=O)N(C(=O)c1ccc(Cl)cc1)c1ccc(C)cc1)c1ccccc1O', '> 100 µM'),
  ('C1C[OH+]CC[OH+]CCNCC[OH+]CC[OH+]CCN1.Cl.[Cl-].[Pt+4]', '> 100 µM'),
  ('CC(=O)OCC1OC(n2nc(Cc3ccccc3)c(=S)[nH]c2=S)C(OC(C)=O)C(OC(C)=O)C1OC(C)=O (stereo not given)', '40.5 µM'),
  ('Cc1ccccc1C1CC(c2ccccc2)=NO1 (stereo not given)', '> 100 µM'),
  ('CC(=O)O[C@H]1CC2C=CC3C(CCC31)O2 (stereo not given in full)', '> 100 µM'),
  ('Fc1ccc(Nc2nc3ccccc3c3occc23)cc1', '21.4 µM'),
  ('COc1cccc(Nc2nccc(-c3cnn4ncccc34)n2)c1', '> 25 µM'),
  ('CCOC(=O)C(CCc1ncnc2c1ncn2Cc1ccccc1)(CCc1ncnc2c1ncn2Cc1ccccc1)C(=O)OCC', '> 100 µM'),
  ('CCN(CC)CCNc1ccc2nc(C)n3c4ccc(O)cc4c(=O)c1c23', '5.83 µM'),
  ('COc1cc2c[n+](C)c3c(c2cc1OC)Cc1cc2c(cc1-3)OCO2', '> 100 µM');
